# system_under_test: MUC17 on LS174T colorectal cancer cells (human, UniProt Q685J3 26-4493)
# measurement_notes: flow cytometry on LS174T cells, murine antibody titrated
log10 EC50 by entry:
observed_property: log10 EC50 (log10 of the value in µg/mL)

[[record]]
binder = "23F6 (antibody, V domains shown) VH: QVQLKESGPGLVAPSQSLSITCTVSGFSLTAYGVHWVRQPPGKGLEWLGGIWAGGNTQSHSALMSRVSISKDISKRQVFLKMDRLQTDDSAIYYCARALFYGNFDVWGAGTTVTVSS VL: DIVMTQSQRFMSTSVGDRVSVTCKASQSVDTSVAWYQQRPGQSPEALIFSASYRYSGVPDRFTGSGSGTDFTLTISNVQSEDLAEYFCQQYNSYPYTFGGGTNLEMR"
observed_property = "log10 EC50"
reported = -0.40

[[record]]
binder = "50A5 (antibody, V domains shown) VH: QVQLKESGPGLVAPSQSLSITCTVSGFSLTAYGVHWVRQPPGKGLEWLGGIWAGGNTQSHSALMSRLTISKDISKSQVFLRMNSLQTDDSAMYYCARALFYGNFDVWGAGTTVTVSS VL: DIVMTQSQRFMSTSVGDRVSVTCKASQSVDTSVAWYQQRPGQSPEALIFSASYRYSGVPDRFTGSGSGTDFTLTISNVQSEDLAEYFCQQYNSYPYTFGGGTNLEIK"
observed_property = "log10 EC50"
reported = -0.27

[[record]]
binder = "51E12 (antibody, V domains shown) VH: QVQLQQSGPELVKPGASVKISCKVSGNAFSLSWMNWVKQRPGQGLEWIGRIYPGDGDSNYNGKFKGKATLTADKSSSTVFMQLSSLTSVDSAVYFCANYYGSSSWFVYWGQGTLVTVSA VL: DVVMTQTPLSLPVSLGDQASISCRSSQSLVHSYGNTYLHWYLQKPGQSPKLLIYKVSNRFSGVPDRFSGSGSGTDFTLKISRVETEDLGVYFCSQSTHFPWTFGGGTKLEIK"
observed_property = "log10 EC50"
reported = -1.33

[[record]]
binder = "15D10 (antibody, V domains shown) VH: QVQLQQPGAELVKPGASVKMSCKASGYTFTTYWMHWVKQRSGQGLEWIGVIDPSDSYTRYNQKFKDKATLTVDTSSSTAYMHLTSLTSEDSAVYYCTRSGIGNSFIMDYWGQGTSVTVSS VL: QVVLTQSPAIMPAFPGEKVTISCSASSSVIYMFWYQQKPGSSPKPWIYRTSNLASGVPARFTGSGSGTSYSLTISSMEAEDAATYYCQQYHSYPLTFGVGTKLELK"
observed_property = "log10 EC50"
reported = 0.54

[[record]]
binder = "56E8 (antibody, V domains shown) VH: QVQLKESGPGLVAPSQSLSITCTVSGFSLTAYGVHWVRQPPGKGLEWLGGIWAGGSTKSNSALMSSLSISKDNSKSQVFLKMNSLQTDDSAMYYCARALFYGYFDVWGAGTTVTVSS VL: DIVMTQSQKFMSTSVGDRVSVTCKASQSVDTNVAWYQQRPGQSPEALIFSASYRYSGVPDRFTGSGSGTDFTLTISNVQSEDLAEYFCQQYNVYPYTFGGGTNLEIK"
observed_property = "log10 EC50"
reported = -0.96

[[record]]
binder = "8H2 (antibody, V domains shown) VH: EVNLVESGGGLVKPGGSLKLSCAASGFAFSNYDMSWVRQTPEKRLEWVATISGGGSYTYYPDNVKGRFTISRDNAMNTLYLQMSSLRSEDTALYYCASVNWGFPYWGQGTLVTVSA VL: DIVMSQSPSSLAVSIGEKVTMSCKSSQSLLYSRNQKNYLAWYQQKPGQSPILLIYWTSTRESGVPDRFTGSGSGTDFTLTISGVKAEDLAVYYCQQYYTSPWTFGGGTRLEIK"
observed_property = "log10 EC50"
reported = -0.79

[[record]]
binder = "11C8 (antibody, V domains shown) VH: QVQLKESGPGLVAPSQSLSITCTVSGFSLTAYGVHWVRQPPGKGLEWLGGIWAGGSTQSNSALMSRLSISKDSSKSQVFLRMNSLQTDDSAMYYCARALFYGNFDVWGAGTTVTVSS VL: DIVMTQSQKFMSTSVGDRVSVTCKASQSVDTSVAWYQQRPGQSPEALIFSASYRYSGVPDRFTGSGSGTDFTLTINNVQSEDLAEYFCQQYNSYPYTFGGGTNLEIK"
observed_property = "log10 EC50"
reported = -0.06

